The reported numbers originate from the supplement of paper PMC6757056.

Here, each record is paired with measured normalized RNA/DNA level with ligand (log10) data.
B1: library; a variant is named by its letters at N, in order (parent)
chain: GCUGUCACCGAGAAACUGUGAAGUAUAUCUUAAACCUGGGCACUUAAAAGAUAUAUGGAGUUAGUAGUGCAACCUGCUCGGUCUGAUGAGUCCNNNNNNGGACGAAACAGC

Variants of: B1
measurement.description: normalized RNA/DNA level with ligand (relative to sTRSVctl = 100) (log10 (% of sTRSVctl)); HEK293T; ligand: cyclic di-GMP (c-di-GMP-II aptamer); ligand concentration (+) RNA-Seq: 1 mM; higher = less ribozyme self-cleavage, higher mRNA level
particulars: reporter: mCherry (pCS4076), ligand present: yes
Please give only the number in your answer, with no unit.

Consider the reported normalized RNA/DNA level with ligand (log10) for these variants:
GCAACU; 1.77
UGUCGG; 1.86
CAUCGC; 1.87

Request: May I ask what normalized RNA/DNA level with ligand (log10) has been recorded for AUCCAG ?
Result: 1.85

Request: Quick one: normalized RNA/DNA level with ligand (log10) for CGACGA ?
Result: 1.71

Request: For UCUAGU , what is its reported normalized RNA/DNA level with ligand (log10)?
Result: 1.83

Request: Which normalized RNA/DNA level with ligand (log10) value is on record for CUGAUU ?
Result: 1.71

Request: Which normalized RNA/DNA level with ligand (log10) is reported for this variant? GUUCCU
Result: 1.89

Request: I am curious: what normalized RNA/DNA level with ligand (log10) value has been reported for GAUCGC ?
Result: 1.86

Request: Return reported normalized RNA/DNA level with ligand (log10); argument: CAAGGG
Result: 1.8

Request: GET /values?readout=normalized RNA/DNA level with ligand (log10)&item= UGUAUU
Result: 1.9

Request: Request the reported normalized RNA/DNA level with ligand (log10) associated with GUGCGA
Result: 1.73

Request: // lookup normalized RNA/DNA level with ligand (log10) for CGUGUC
Result: 1.82

Request: Give its normalized RNA/DNA level with ligand (log10) value. Item: UGCAAC
Result: 1.87

Request: Value lookup for normalized RNA/DNA level with ligand (log10); key = AUGGUG
Result: 1.7

Request: Looking for the measured normalized RNA/DNA level with ligand (log10) of UAUUCA , can you help?
Result: 1.88

Request: Requested field: normalized RNA/DNA level with ligand (log10). Item: UGCUUG
Result: 1.88

Request: Data request, read-out normalized RNA/DNA level with ligand (log10), for AAAUCC
Result: 1.83

Request: Using the record for CCGUUU , report its normalized RNA/DNA level with ligand (log10).
Result: 1.71

Request: Fill blank: measured normalized RNA/DNA level with ligand (log10) of the variant CUGCAU is ____.
Result: 1.77

Request: Quick one: normalized RNA/DNA level with ligand (log10) of CCAAUA ?
Result: 1.59

Request: Report normalized RNA/DNA level with ligand (log10) for UAAUGU please.
Result: 1.78

Request: Consider the variant GUGUAU and give its measured normalized RNA/DNA level with ligand (log10).
Result: 1.78

Request: Requested read-out: normalized RNA/DNA level with ligand (log10). Entry: CUAGCU
Result: 1.85

Request: Using the record for GUUUUG , report its normalized RNA/DNA level with ligand (log10).
Result: 1.8
